Cited source: paper PMC3411462

- method: Brain and plasma concentrations in mice after intraperitoneal administration (LC-MS-MS), non-compartmental analysis
- Format: in vivo
- conditionLabel: male, Swiss-Webster, mouse, brain, ip, 10 mg/kg, 0.5 h, 10 mg/kg i.p., individual mice; read-out: [drug],brain (free base equivalent)
- Method: Doses are reported by weight of the specified salt. […] Body mass was measured to ±0.1 g. Mice were sacrificed by cervical dislocation, then decapitated for collection of brain and blood samples. […] Drug concentrations (ng mL^-1) refer to the free base, and were measured by liquid chromatography-tandem mass spectrometry (LC-MS-MS) as described previously. […] Compounds were detected in positive ion mode, tuned to the mass transition with the largest intensity. […]
propertyName: concentration at 0.5 h

[[record]]
chemicalstring = "N=C(N)Nc1ccc2[nH]c3c(c2c1)C[C@@]1(O)[C@H]2Cc4ccc(O)c5c4[C@@]1(CCN2CC1CC1)[C@H]3O5"
recordedmeasurement = "< 120 ng/g"

[[record]]
chemicalstring = "Oc1ccc2c3c1O[C@H]1c4[nH]c5c(c4C[C@@]4(O)[C@@H](C2)N(CC2CC2)CC[C@]314)C[C@@]1(O)[C@H]2Cc3ccc(O)c4c3[C@@]1(CCN2CC1CC1)[C@H]5O4"
recordedmeasurement = "354 ng/g"

